This section presents molecules with their documented pIC50 values.
Test system: phosphorylation of Chk1 (Ser 345) in HT29 colon adenocarcinoma cells
EXPERIMENTAL_DETAILS: pCHK1 cellular assay
Format: cell-based
TEST_CONTEXT: Homo sapiens, HT-29, hydroxyurea 3 mM, 4 h
pIC50: −log10 of the molar value.

# MOLECULE, pIC50
data = [
    ("C[C@@H]1COCCN1c1cc([C@H]2CCOC2)c2c(n1)c(-c1ccn[nH]1)nn2C [Compound 72]", "7.00 to 8.00"),
    ("C[C@@H]1COCCN1c1cc(C2=CCS(=O)(=O)CC2)c2c(n1)c(-c1ccn[nH]1)nn2C [Compound 81]", "6.00 to 7.00"),
    ("C[C@@H]1COCCN1c1cc(-c2ccc(S(C)(=O)=O)cc2)c2c(n1)c(-c1cc[nH]n1)nn2C [Compound 7]", "7.00 to 8.00"),
    ("CC(C)n1nc(-c2cc[nH]n2)c2nc(N3CCOC[C@H]3C)cc(-c3ccc(S(C)(=O)=O)cc3)c21 [Compound 41]", "7.00 to 8.00"),
    ("C[C@@H]1COCCN1c1ccc2c(n1)c(-c1cc[nH]n1)nn2Cc1cccc(S(C)(=O)=O)c1 [Compound 57]", "5.00 to 6.00"),
]

I have this molecule here, Cc1c(-c2cc(N3CCOC[C@H]3C)nc3c(-c4cc[nH]n4)nn(C)c23)nnn1C [Compound 84] , and I need its recorded pIC50.
7.00 to 8.00

For the molecule shown here, C[C@@H]1COCCN1c1ccc2c(n1)c(-c1cc[nH]n1)nn2-c1cccc(C#N)c1 [Compound 53] , give the reported pIC50.
5.00 to 6.00
